assay-system: rGmolOBP7 (recombinant GmolOBP7) (Grapholita molesta, UniProt A0A2R4SBC1)
Sequence (A0A2R4SBC1 entry or part of it): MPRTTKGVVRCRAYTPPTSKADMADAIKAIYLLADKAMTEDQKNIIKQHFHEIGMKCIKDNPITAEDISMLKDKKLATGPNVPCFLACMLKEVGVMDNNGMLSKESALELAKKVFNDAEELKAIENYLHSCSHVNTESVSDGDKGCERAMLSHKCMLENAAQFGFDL
procedure-details: biochemical
Type: binding
measurement-kind: Ki (µM)
Write the number in µM without appending the unit.

Identify the measured Ki of `N#Cc1ccccc1` for rGmolOBP7 (recombinant GmolOBP7) (Grapholita molesta, UniProt A0A2R4SBC1).
12.5

Identify the measured Ki of CCCCOC(C)=O [Butyl acetate] for rGmolOBP7 (recombinant GmolOBP7) (Grapholita molesta, UniProt A0A2R4SBC1).
12.6

Identify the measured Ki of CC1=CCC2CC1C2(C)C (stereo not shown) for rGmolOBP7 (recombinant GmolOBP7) (Grapholita molesta, UniProt A0A2R4SBC1).
11.9

Identify the measured Ki of CC/C=C\CCO [(Z)-3-Hexen-1-ol] for rGmolOBP7 (recombinant GmolOBP7) (Grapholita molesta, UniProt A0A2R4SBC1).
12.3

Identify the measured Ki of CCC/C=C/C=O [(E)-2-Hexenal] for rGmolOBP7 (recombinant GmolOBP7) (Grapholita molesta, UniProt A0A2R4SBC1).
17

Identify the measured Ki of COC(=O)c1ccccc1O [Methyl salicylate] for rGmolOBP7 (recombinant GmolOBP7) (Grapholita molesta, UniProt A0A2R4SBC1).
9.81

Identify the measured Ki of `CCCCCC=O` for rGmolOBP7 (recombinant GmolOBP7) (Grapholita molesta, UniProt A0A2R4SBC1).
19.1

Identify the measured Ki of C=CC(C)(O)CCC=C(C)C (stereo not shown) for rGmolOBP7 (recombinant GmolOBP7) (Grapholita molesta, UniProt A0A2R4SBC1).
15.1

Identify the measured Ki of `O=Cc1ccccc1` for rGmolOBP7 (recombinant GmolOBP7) (Grapholita molesta, UniProt A0A2R4SBC1).
14.1

* * *

assay-system: rGmolOBP7 (recombinant GmolOBP7) (Grapholita molesta, UniProt A0A2R4SBC1)
procedure-details: biochemical
Type: binding
Just a reminder that ties go to Not satisfied: only IC50 strictly below 20 µM counts as Satisfied.

Given N#Cc1ccccc1 [Benzonitrile] , is recorded IC50 strictly lower than 20 µM?
Satisfied

Given C=CC(C)(O)CCC=C(C)C (stereo not drawn) [Linalool] , is recorded IC50 strictly lower than 20 µM?
Not satisfied

Given CCCCCCCCCCO [1-Decanol] , is recorded IC50 strictly lower than 20 µM?
Not satisfied

Given CCCCOC(C)=O [Butyl acetate] , is recorded IC50 strictly lower than 20 µM?
Satisfied

Given C=C1CC/C=C(\C)CC[C@@H]2[C@@H]1CC2(C)C [β-Caryophyllene] , is recorded IC50 strictly lower than 20 µM?
Not satisfied

Given CCCCCCCCCCCCCCO [1-Tetradecanol] , is recorded IC50 strictly lower than 20 µM?
Not satisfied

Given CCCCCC=O [Hexanal] , is recorded IC50 strictly lower than 20 µM?
Not satisfied

Given CCCCCCC=O [Heptanal] , is recorded IC50 strictly lower than 20 µM?
Satisfied

Given COC(=O)c1ccccc1O [Methyl salicylate] , is recorded IC50 strictly lower than 20 µM?
Satisfied

Given OCc1ccccc1 [Benzyl alcohol] , is recorded IC50 strictly lower than 20 µM?
Not satisfied

Given CC/C=C\CCO [(Z)-3-Hexen-1-ol] , is recorded IC50 strictly lower than 20 µM?
Satisfied

Given CCC/C=C/C=O [(E)-2-Hexenal] , is recorded IC50 strictly lower than 20 µM?
Not satisfied

Given CCCCCCO [1-Hexanol] , is recorded IC50 strictly lower than 20 µM?
Not satisfied

Given CC1=CCC2CC1C2(C)C (stereo not drawn) [α-Pinene] , is recorded IC50 strictly lower than 20 µM?
Satisfied
